Kindly state melting point for each of the entries shown.

* O=C(O)c1cccc(Oc2ccc(C(=O)c3ccc(F)cc3)cc2)c1 | 158 to 160 °C
* Clc1ccc2c(c1)C=C(n1ccnc1)CO2 | 118 to 120 °C
* CCCNS(=O)(=O)c1ccc(Nc2nc(OCC3CCCCC3)c3nc[nH]c3n2)cc1 | 207 to 208 °C
* COc1cc2c(cc1N1CCNCC1)N(C(=O)c1ccc(-c3ccc(-c4noc(C)n4)cc3C)cc1)CC2 | 153 to 155 °C

// each listed compound needs a value for melting point
1. CCCCc1oc2ccccc2c1Cc1cc(Br)c(O[C@H](Cc2ccccc2)C(=O)O)c(Br)c1
2. COC(=C[N+](=O)[O-])NCc1cccnc1

Key:
1: 225 to 226 °C; 2: 129 to 130 °C

Hi! Can you tell me melting point for each of these compounds?
1. CS(=O)(=O)Nc1ccc(-c2cn3cccnc3n2)cc1Sc1ccc(F)cc1F
2. CNCC(O)C1=CC2(CCCC2)c2ccccc21 (centres undefined)
3. N#Cc1ccc(-c2n[nH]cc2C(F)(F)F)cc1SCC(F)(F)F
4. COc1ccc(OCCCCCN2CCC(CNC(=O)c3cc(Cl)c(N)cc3OC)CC2)cc1OC

Key:
1: 219 to 220 °C; 2: 75 to 77 °C; 3: 90 to 91 °C; 4: 85 to 87 °C

Items follow; give melting point for each.
1. Nc1ccc(C(=O)N(CCN2CCC(C(=O)c3ccc(F)cc3)CC2)c2ccccc2)cc1
2. Cc1cccc(N2CCN(CCCCc3ccc(C(CCC(=O)O)=NO)cc3)CC2)c1
3. CC(C)(C)OC(=O)NCCNCCNC(=O)OC(C)(C)C

Key:
1. 156 to 157 °C
2. 175 to 177 °C
3. 69 to 71 °C

Provide melting point values for the following items, in order.
1. Cc1cccc(NC(=O)NCC(=O)N(CC(=O)OC(C)(C)C)c2ccccc2)c1
2. CCCn1nc(-c2ccc(OC(=O)CC(C)(C)C)cc2)c2cccc(Cl)c21

Key:
1. 180 °C
2. 71 to 72 °C
